Tested on: HL-60(TB) leukemia
assay-protocol: NCI tumour cell line growth inhibition, 48 h
Measured TGI accompanies every entry in the list below.

[
  {
    "compound": "CCCCCCCCn1ccc2cc(NC(=O)Cn3cc(CN4CCCCC4)nn3)ccc21",
    "target-system": "HL-60(TB) leukemia",
    "TGI": "4.15 µM"
  },
  {
    "compound": "COc1cc(C2C(Cl)C(=O)N2NC(=O)c2ccc(N)cc2)cc(Br)c1O (stereo not given)",
    "target-system": "HL-60(TB) leukemia",
    "TGI": "27.6 µM"
  },
  {
    "compound": "COc1ccc2cc(-c3nc(N)nc(N4N=C(C)CC4(C)C)n3)c(=N)oc2c1",
    "target-system": "HL-60(TB) leukemia",
    "TGI": "43.9 µM"
  },
  {
    "compound": "COC(=O)C(Cc1nc2ccccc2nc1C)/C(=N\\NC(N)=O)C(=O)Nc1cccc([N+](=O)[O-])c1 (stereo not given)",
    "target-system": "HL-60(TB) leukemia",
    "TGI": "> 100 µM"
  },
  {
    "compound": "CC#CC1C2CCCC1(CSc1ccccc1)NC(=O)O2 (stereo not given)",
    "target-system": "HL-60(TB) leukemia",
    "TGI": "> 100 µM"
  }
]
